assayed.system: nicotinic receptor (nAChR) found in H. azteca
measurement.protocol: competitive [3H]imidacloprid displacement, filtration
recorded.conditions: 1 nM [3H]IMI, pH 7.0, 20 °C, crude microsomes 100 μg/mL
pIC50: −log10 of the molar value.
endpoint.label: pIC50

>>> meas_value("O=[N+]([O-])N=C1NCCN1Cc1ccc(Cl)nc1")
8.05
